Tested on: U2OS
methodSummary: Multiplex assay against U2OS
Assay type: toxicity, cell-based
conditionsUsed: human, 24 h, 10 µM, compound concentration 10 uM, replicate 1
Measured Total Cell Count accompanies every entry in the list below.
// keep it numeric: no unit symbol after the value

compound: COC(c1ccccc1)(c1ccccc1)[C@H](Oc1nc(C)cc(C)n1)C(=O)O
Total Cell Count: 273

compound: S=C(NCCCc1c[nH]cn1)NCCCN(Cc1ccc(Cl)c(Cl)c1)c1ccc(Br)cn1
Total Cell Count: 227

compound: Cc1c(Cc2ccc3ccccc3n2)c2cc(F)ccc2n1CC(=O)O
Total Cell Count: 278

Kindly note the recorded Total Cell Count for CN1C[C@H](C(=O)N[C@]2(C)O[C@@]3(O)[C@@H]4CCCN4C(=O)[C@H](Cc4ccccc4)N3C2=O)C[C@@H]2c3cccc4[nH]cc(c34)C[C@H]21.CS(=O)(=O)O [DIHYDROERGOTAMINE MESYLATE] , which is 337

* * *

System: Fibroblast
methodSummary: Multiplex assay against human fibroblast
Assay type: toxicity, cell-based
conditionsUsed: 24 h, 10 µM, compound concentration 10 uM, replicate 2
Measured Population Fragmented Nuclei (%) accompanies every entry in the list below.
Respond numerically; units are % and should not be typed.

structure: Cc1cc(NC(=O)NCCN2CCC(O)(Cc3ccccc3)CC2)c2ccccc2n1
units: %
Population Fragmented Nuclei (%): 30
//
structure: CC(C)(C)c1ccc(CSc2cnn(C(C)(C)C)c(=O)c2Cl)cc1
units: %
Population Fragmented Nuclei (%): 28
//
structure: Nc1nc(-c2ccco2)c2cnn(Cc3ccccc3F)c2n1
units: %
Population Fragmented Nuclei (%): 43
//
structure: N[C@](CC1c2ccccc2Oc2ccccc21)(C(=O)O)[C@H]1C[C@@H]1C(=O)O
units: %
Population Fragmented Nuclei (%): 18
//
structure: CSc1nc(NC2CCCC2)c([N+](=O)[O-])c(NC2CCCC2)n1
units: %
Population Fragmented Nuclei (%): 25

Kindly note the recorded Population Fragmented Nuclei (%) for COc1cc(OC2CCN(C(C)=O)CC2)ccc1C(=O)N1CCC(N2C(=O)OCc3ccccc32)CC1 , which is 34

Kindly note the recorded Population Fragmented Nuclei (%) for Cc1c(Cc2ccc3ccccc3n2)c2cc(F)ccc2n1CC(=O)O , which is 29

Kindly note the recorded Population Fragmented Nuclei (%) for CCCCC[C@H](O)/C=C/[C@H]1[C@H](O)CC(=O)[C@@H]1CCCCCCC(=O)O , which is 27

Kindly note the recorded Population Fragmented Nuclei (%) for O=c1ccc2ccc(OCCCCN3CCN(c4cccc5sccc45)CC3)cc2[nH]1 , which is 30

* * *

Tested on: Fibroblast
methodSummary: Multiplex assay against human fibroblast
Format: toxicity, cell-based
conditionsUsed: 12 h, 10 µM, compound concentration 10 uM, replicate 2
experimentalReadout: Total Cell Count

Before answering, review these 4 worked examples.
compound: CC(C)C[C@H](CO)Nc1nc(S[C@@H](C)c2ccccc2)nc2nc(N)sc12 [AZD-8797]
Total Cell Count: 122

compound: OCCCNc1cc(-c2ccnc(Nc3cccc(Cl)c3)n2)ccn1
Total Cell Count: 227

compound: CC(C)(C)c1ccc(CSc2cnn(C(C)(C)C)c(=O)c2Cl)cc1 [PYRIDABEN]
Total Cell Count: 136

compound: CN(C)C(=O)Cn1cc(-c2ccc(-c3nnc4ccccn34)cc2)cn1
Total Cell Count: 123

Kindly note the recorded Total Cell Count for Cc1nn(C)c2nc(NNC(=O)Nc3cc(Cl)nc(Cl)c3)cc(C(C)C)c12 , which is 140

Kindly note the recorded Total Cell Count for CCc1nn2c(C)cc(C)nc2c1Cc1ccc(-c2nnc(C3CCNCC3)o2)cc1 , which is 162

* * *

Test system: Fibroblast
methodSummary: Multiplex assay against human fibroblast
Assay type: toxicity, cell-based
conditionsUsed: 48 h, 1 µM, compound concentration 1 uM, replicate 1
Measured Population Healthy Nuclei (%) accompanies every entry in the list below.
Respond numerically; units are % and should not be typed.

Before answering, review these 5 worked examples.
compound: C=CCN1C[C@H](C(=O)N(CCCN(C)C)C(=O)NCC)C[C@@H]2c3cccc4[nH]cc(c34)C[C@H]21 [CABERGOLINE]
Population Healthy Nuclei (%): 75
//
compound: Cc1cc(O)c(-c2ccc([C@@H](C)CN(C)C)cc2)c2c1[nH]c(=O)c1sccc12
Population Healthy Nuclei (%): 55
//
compound: CN1CCN2c3ccccc3Cc3ccccc3C2C1.Cl (configuration not stated) [MIANSERIN HYDROCHLORIDE]
Population Healthy Nuclei (%): 55
//
compound: O=c1ccc2ccc(OCCCCN3CCN(c4cccc5sccc45)CC3)cc2[nH]1 [BREXPIPRAZOLE]
Population Healthy Nuclei (%): 62
//
compound: CN1C[C@H](C(=O)N[C@]2(C)O[C@@]3(O)[C@@H]4CCCN4C(=O)[C@H](Cc4ccccc4)N3C2=O)C[C@@H]2c3cccc4[nH]cc(c34)C[C@H]21.CS(=O)(=O)O [DIHYDROERGOTAMINE MESYLATE]
Population Healthy Nuclei (%): 68

Summary line: COc1cc2nc(N3CCN(C(=O)c4ccco4)CC3)nc(N)c2cc1OC.Cl [PRAZOSIN HYDROCHLORIDE] , Fibroblast, reported Population Healthy Nuclei (%) = 62

Summary line: COc1ccc2[nH]c(I)c(CCNC(C)=O)c2c1 [IODOMELATONIN] , Fibroblast, reported Population Healthy Nuclei (%) = 64

* * *

Tested on: HEK-293T
methodSummary: Multiplex assay against HEK293T
Format: toxicity, cell-based
conditionsUsed: human, 24 h, 1 µM, compound concentration 1 uM, replicate 2
Non-standard residues stand in square brackets, D forms with d. Residues, ends and D or L forms follow the SMILES beside them.
Measured Population Apoptotic (%) accompanies every entry in the list below.
Respond numerically; units are % and should not be typed.

compound: CCCCC[C@H](O)/C=C/[C@H]1[C@H](O)CC(=O)[C@@H]1CCCCCCC(=O)O [ALPROSTADIL]
targetOrSystem: HEK-293T
experimentalReadout: Population Apoptotic (%)
units: %
endpointValue: 34
//
compound: CCC(=O)OCC(=O)[C@@]1(OC(=O)CC)[C@@H](C)C[C@H]2[C@@H]3CCC4=CC(=O)C=C[C@]4(C)[C@@]3(Cl)[C@@H](O)C[C@@]21C [BECLOMETHASONE DIPROPIONATE]
targetOrSystem: HEK-293T
experimentalReadout: Population Apoptotic (%)
units: %
endpointValue: 43
//
compound: Cc1ccc(OCC(O)C(C)NC(C)C)c2c1CCC2.Cl (configuration not stated)
targetOrSystem: HEK-293T
experimentalReadout: Population Apoptotic (%)
units: %
endpointValue: 28
//
compound: COC(c1ccccc1)(c1ccccc1)[C@H](Oc1nc(C)cc(C)n1)C(=O)O [AMBRISENTAN]
targetOrSystem: HEK-293T
experimentalReadout: Population Apoptotic (%)
units: %
endpointValue: 43
//
compound: CN1CCN2c3ccccc3Cc3ccccc3C2C1.Cl (configuration not stated) [MIANSERIN HYDROCHLORIDE]
targetOrSystem: HEK-293T
experimentalReadout: Population Apoptotic (%)
units: %
endpointValue: 26

Kindly note the recorded Population Apoptotic (%) for Nc1nc(-c2ccco2)c2cnn(Cc3ccccc3F)c2n1 , which is 28

Kindly note the recorded Population Apoptotic (%) for COc1ccc2c(c1OCc1ccccc1)C[C@@H](C(=O)O)N(C(=O)C(c1ccccc1)c1ccccc1)C2 [OLODANRIGAN] , which is 19

Kindly note the recorded Population Apoptotic (%) for Cn1cc(C(=O)OCC2CCN(CCNS(C)(=O)=O)CC2)c2ccccc21 , which is 48

Kindly note the recorded Population Apoptotic (%) for CC(C)C[C@@H]1NC(=O)[C@@H](C(C)C)NC(=O)[C@@H]2CCCN2C(=O)[C@@H](CC(=O)O)NC(=O)[C@@H](Cc2c[nH]c3ccccc23)NC1=O [BQ-123] (cyclo(L[dW][dD]P[dV])) , which is 40

Kindly note the recorded Population Apoptotic (%) for Nc1nc(CC(=O)Nc2ccc(CCNC[C@H](O)c3ccccc3)cc2)cs1 [MIRABEGRON] , which is 27

Kindly note the recorded Population Apoptotic (%) for CC(C)(O)C(=O)N1CCN(c2ccc(C(F)(F)F)c(C3=C(c4c[nH]c5ccccc45)C(=O)NC3=O)c2)CC1 , which is 29

Kindly note the recorded Population Apoptotic (%) for C[C@@H]1CC(=O)Nc2cccc(-c3ccc4c(c3)c(-c3cnn(C)c3)nn4C)c2N1 , which is 50

Kindly note the recorded Population Apoptotic (%) for CC(C)C[C@H](CO)Nc1nc(S[C@@H](C)c2ccccc2)nc2nc(N)sc12 [AZD-8797] , which is 45

Kindly note the recorded Population Apoptotic (%) for O=c1nc2[nH]c3ccccc3nc-2c(=O)[nH]1 [ALLOXAZINE] , which is 33

Kindly note the recorded Population Apoptotic (%) for S=C(NCCCc1c[nH]cn1)NCCCN(Cc1ccc(Cl)c(Cl)c1)c1ccc(Br)cn1 , which is 41

Kindly note the recorded Population Apoptotic (%) for COCCCN1CCC(NC(=O)c2cc(Cl)c(N)c3c2OCC3)CC1 [PRUCALOPRIDE] , which is 28

Kindly note the recorded Population Apoptotic (%) for Cc1cc(-c2ccc3c(c2)CC[C@H]3N2CC3(CCN(C(=O)Cc4cn5cc(C)sc5n4)CC3)C2)ncn1 [PF-5190457] , which is 45
